# SYSTEM UNDER TEST: T1, human EphB4-His (human) (UniProt P54760)
# T1 sequence (looked up): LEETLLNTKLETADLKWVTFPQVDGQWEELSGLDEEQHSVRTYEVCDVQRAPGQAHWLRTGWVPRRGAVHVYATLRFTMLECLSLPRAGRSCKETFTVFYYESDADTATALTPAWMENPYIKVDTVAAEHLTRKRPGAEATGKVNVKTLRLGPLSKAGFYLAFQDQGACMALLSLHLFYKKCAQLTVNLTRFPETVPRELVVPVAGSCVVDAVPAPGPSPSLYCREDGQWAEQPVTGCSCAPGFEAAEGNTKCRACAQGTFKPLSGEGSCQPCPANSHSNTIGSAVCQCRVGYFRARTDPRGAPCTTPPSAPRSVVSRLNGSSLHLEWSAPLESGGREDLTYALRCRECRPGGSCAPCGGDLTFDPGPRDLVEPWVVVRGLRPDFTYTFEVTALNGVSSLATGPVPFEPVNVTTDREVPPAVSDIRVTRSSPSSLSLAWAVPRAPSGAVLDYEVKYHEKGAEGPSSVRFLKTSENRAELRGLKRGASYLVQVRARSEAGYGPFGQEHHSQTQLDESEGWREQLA
# EXPERIMENT SUMMARY: SPR, BIAcore-3000, antibody coupled to CM5 chip, EphB4-His injected, 25 C
PROPERTY: kon (M⁻¹ s⁻¹)
The answer is to be given in M⁻¹ s⁻¹; state only the numeric part.

Worked examples, 2 binders total:
BINDER	UNIT TAG	kon
anti-EphB4 antibody clone YW30.35.2D8 (antibody, V domains shown) VH: EVQLVESGGGLVQPGGSLRLSCAASGFSISNYYLHWVRQAPGKGLEWVGGIYLYGSSSEYADSVKGRFTISADTSKNTAYLQMNSLRAEDTAVYYCARGSGLRLGGLDYAMDYWGQGTLVTVSS VL: DIQMTQSPSSLSASVGDRVTITCRASQDVSTAVAWYQQKPGKAPKLLIYSASFLYSGVPSRFSGSGSGTDFTLTISSLQPEDFATYYCQESTTTPPTFGQGTKVEIK	M⁻¹ s⁻¹	40000
anti-EphB4 antibody clone YW30.35.2D12 (antibody, V domains shown) VH: EVQLVESGGGLVQPGGSLRLSCAASGFTISGYYIHWVRQAPGKGLEWVGGIYLYSGSRGYADSVKGRFTISADTSKNTAYLQMNSLRAEDTAVYYCARGSGLRLGGLDYAMDYWGQGTLVTVSS VL: DIQMTQSPSSLSASVGDRVTITCRASQDVSTAVAWYQQKPGKAPKLLIYSASFLYSGVPSRFSGSGSGTDFTLTISSLQPEDFATYYCQKSETIPPSFGQGTKVEIK	M⁻¹ s⁻¹	27000

Prompt line: Tell us which kon value is on record for anti-EphB4 antibody clone YW30.35.1D2 (antibody, V domains shown) VH: EVQLVESGGGLVQPGGSLRLSCAASGFTISGYYIHWVRQAPGKGLEWVGGIYPYSGSTDYADSVKGRFTISADTSKNTAYLQMNSLRAEDTAVYYCARSSGLRLGGLDYAMDYWGQGTLVTVSS VL: DIQMTQSPSSLSASVGDRVTITCRASQDSEIFLAWYQQKPGKAPKLLIYSASNLESGVPSRFSGSGSGTDFTLTISSLQPEDFATYYCQQSNAVPLTFGQGTKVEIK
Response line: 36000

Origin of values: patent US20100015135A1
